Where do these numbers come from? They come from ChEMBL document CHEMBL1156764.

Assay: Inhibition of Trypanosoma brucei recombinant PTR1

MOLECULE: COc1ccc(-c2[nH]c3nc(N)[nH]c(=O)c3c2C#N)cc1
Ki: 0.36 µM
//
MOLECULE: Nc1cc(NC2CC2)nc(N)n1
Ki: > 35 µM
//
MOLECULE: N#Cc1c(-c2cccc(C=O)c2)[nH]c2nc(N)[nH]c(=O)c12
Ki: 0.29 µM
//
MOLECULE: CC(C)c1nc2nc(N)nc(N)c2nc1C(C)C
Ki: 3.3 µM
//
MOLECULE: N#Cc1c[nH]c2nc(N)[nH]c(=O)c12
Ki: 5.8 µM
//
MOLECULE: Nc1nc(N)c2nc(-c3ccccc3)c(N)nc2n1
Ki: 1.2 µM
//
MOLECULE: Nc1cc(N)nc(N)n1
Ki: > 35 µM
//
MOLECULE: N#Cc1c(-c2ccccc2)[nH]c2nc(N)[nH]c(=O)c12
Ki: 0.71 µM
//
MOLECULE: Cc1ccc(Sc2cc(N)nc(N)n2)cc1
Ki: 5.4 µM
//
MOLECULE: CCc1ccc(-c2[nH]c3nc(N)[nH]c(=O)c3c2C#N)cc1
Ki: 0.5 µM
//
MOLECULE: N#Cc1c(Br)[nH]c2nc(N)[nH]c(=O)c12
Ki: 3.9 µM
//
MOLECULE: Nc1nc2[nH]ccc2c(=S)[nH]1
Ki: > 35 µM
//
MOLECULE: COc1ccc(CSc2cc(N)nc(N)n2)cc1
Ki: 18 µM
//
MOLECULE: Nc1cc(SCc2ccccc2)nc(N)n1
Ki: 3.2 µM
//
MOLECULE: Nc1nc2c(c(=O)[nH]1)CC=N2
Ki: > 35 µM
//
MOLECULE: CC1=Nc2c(N)nc(N)nc2NC1(C)C
Ki: > 35 µM
//
MOLECULE: N#Cc1c(-c2ccc3c(c2)OCO3)[nH]c2nc(N)[nH]c(=O)c12
Ki: 0.4 µM

====

Target: Pteridine reductase 1 (Leishmania major)
Test: Inhibition of Leishmania major recombinant PTR1
pKi: −log10 of the molar value.
Reported pKi values for the following compounds.

MOLECULE: Nc1nc2[nH]cc(CCc3ccccc3)c2c(=O)[nH]1
VALUE COMPARATOR: <
pKi: 4.57

MOLECULE: Nc1nc2[nH]ccc2c(=S)[nH]1
VALUE COMPARATOR: <
pKi: 4.57

MOLECULE: Cc1ccc(Sc2cc(N)nc(N)n2)cc1
VALUE COMPARATOR: =
pKi: 4.57

MOLECULE: Nc1cc(SCc2ccccc2)nc(N)n1
VALUE COMPARATOR: =
pKi: 6.22

====

Reported pKi values for the following molecules.
Target: Pteridine reductase 1 (Leishmania major, UniProt Q01782)
Sequence (Q01782 whole entry): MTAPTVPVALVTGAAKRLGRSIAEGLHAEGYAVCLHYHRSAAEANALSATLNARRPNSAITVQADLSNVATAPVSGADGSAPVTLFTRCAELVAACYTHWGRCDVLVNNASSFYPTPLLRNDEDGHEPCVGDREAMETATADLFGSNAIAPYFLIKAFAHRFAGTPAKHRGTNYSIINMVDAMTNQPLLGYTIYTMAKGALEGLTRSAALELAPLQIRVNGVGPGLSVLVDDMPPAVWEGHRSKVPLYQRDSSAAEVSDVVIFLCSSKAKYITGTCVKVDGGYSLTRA
Test: Inhibition of Leishmania major recombinant PTR1
pKi: −log10 of the molar value.
QUANTITY NAME: pKi

MOLECULE: N#Cc1c(-c2ccccc2)[nH]c2nc(N)[nH]c(=O)c12
QUANTITY NAME: pKi
VALUE COMPARATOR: <
READOUT VALUE: 4.57
//
MOLECULE: COc1ccc(CSc2cc(N)nc(N)n2)cc1
QUANTITY NAME: pKi
VALUE COMPARATOR: =
READOUT VALUE: 5.57
//
MOLECULE: Nc1cc(N)nc(N)n1
QUANTITY NAME: pKi
VALUE COMPARATOR: <
READOUT VALUE: 4.57
//
MOLECULE: N#Cc1c(-c2ccc3c(c2)OCO3)[nH]c2nc(N)[nH]c(=O)c12
QUANTITY NAME: pKi
VALUE COMPARATOR: =
READOUT VALUE: 5.59
//
MOLECULE: COc1ccc(-c2[nH]c3nc(N)[nH]c(=O)c3c2C#N)cc1
QUANTITY NAME: pKi
VALUE COMPARATOR: =
READOUT VALUE: 5.47
//
MOLECULE: Nc1cc(NC2CC2)nc(N)n1
QUANTITY NAME: pKi
VALUE COMPARATOR: <
READOUT VALUE: 4.57
//
MOLECULE: N#Cc1c(Br)[nH]c2nc(N)[nH]c(=O)c12
QUANTITY NAME: pKi
VALUE COMPARATOR: <
READOUT VALUE: 4.57
//
MOLECULE: CCc1ccc(-c2[nH]c3nc(N)[nH]c(=O)c3c2C#N)cc1
QUANTITY NAME: pKi
VALUE COMPARATOR: =
READOUT VALUE: 4.79
//
MOLECULE: N#Cc1c(-c2cccc(C=O)c2)[nH]c2nc(N)[nH]c(=O)c12
QUANTITY NAME: pKi
VALUE COMPARATOR: =
READOUT VALUE: 5.38
//
MOLECULE: CC(C)c1nc2nc(N)nc(N)c2nc1C(C)C
QUANTITY NAME: pKi
VALUE COMPARATOR: =
READOUT VALUE: 6.62
//
MOLECULE: CC1=Nc2c(N)nc(N)nc2NC1(C)C
QUANTITY NAME: pKi
VALUE COMPARATOR: =
READOUT VALUE: 4.92
//
MOLECULE: N#Cc1c[nH]c2nc(N)[nH]c(=O)c12
QUANTITY NAME: pKi
VALUE COMPARATOR: <
READOUT VALUE: 4.57
//
MOLECULE: Nc1nc(N)c2nc(-c3ccccc3)c(N)nc2n1
QUANTITY NAME: pKi
VALUE COMPARATOR: =
READOUT VALUE: 5.47
